Item-by-item account of Response (%) OX1R
- TEST_TARGET: human OX1R (Homo sapiens, UniProt O43613)
- Construct: expressed in transfected cells; host or cells: CHO (Chinese hamster ovary) cells, line CHOOX1R, co-expressing NFAT-luciferase
- ASSAY_PROTOCOL: Agonist activity against OX1R: intracellular calcium (Fura-2AM, FDSS7000) in CHOOX1R cells
- Type: cell-based
- CONDITION_INFO: test compound 10 μM; relative to orexin-A as full agonist (100%)
- Method: Evaluation of Agonist Activity Against OX1R and OX2R […] (As used herein, Response in Table 21 to Table 27 is a value obtained by dividing the agonist activity value, when the test compound is evaluated with orexin-A as a full-agonist (maximum value of agonist activity: 100%), at 10 μM, 1.0 μM, 0.1 μM by the agonist activity value of orexin-A.)

# MOLECULE, MODIFIER_SIGN, Response (%) OX1R
measured = [
    ("COc1ccc(-c2cccc(C(=O)N(C)C)c2)cc1S(=O)(=O)Nc1cccc(N2CCN(c3ccc(N(C)C)cc3)C2=O)c1 [Example 131]", "=", 18),
    ("COc1ccc(C(=O)N(C)C)cc1S(=O)(=O)Nc1cccc(NC(=O)Nc2ccccc2N(C)C)c1 [Example 114]", "<", 5),
    ("COc1ccccc1Nc1c(Nc2cccc(NS(=O)(=O)c3cc(-c4cccc(C(=O)N(C)C)c4)ccc3OC)c2)c(=O)c1=O [Example 83]", "=", 9),
    ("COc1ccc(-c2cccc(C(=O)N(C)C)c2)cc1S(=O)(=O)Nc1cccc(NS(=O)(=O)N(C)C)c1 [Example 87]", "<", 5),
    ("COc1ccc(-c2cccc(C(=O)N(C)C)c2)cc1S(=O)(=O)Nc1cccc(NS(C)(=O)=O)c1 [Example 89]", "<", 5),
    ("COc1ccc(-c2cccc(C(=O)N(C)C)c2)cc1S(=O)(=O)Nc1cccc(NS(=O)(=O)c2cccc(F)c2)c1 [Example 88]", "=", 9),
    ("COc1ccc(-c2cccc(C(=O)N(C)C)c2)cc1S(=O)(=O)Nc1cccc(N2CCCN(c3ccc(N(C)C)cc3)C2=O)c1 [Example 135]", "=", 83),
    ("CCN(Cc1cccnc1)C(=O)c1ccc(OC)c(S(=O)(=O)Nc2cccc(NC(=O)Nc3ccc(N(C)C)cc3)c2)c1 [Example 111]", "<", 5),
    ("CCN(Cc1cccnc1)C(=O)c1ccc(OC)c(S(=O)(=O)Nc2cccc(NC(=O)Nc3cccc(N(C)C)c3)c2)c1 [Example 102]", "<", 5),
    ("COc1ccc(Nc2c(Nc3cccc(NS(=O)(=O)c4cc(-c5cccc(C(=O)N(C)C)c5)ccc4OC)c3)c(=O)c2=O)cc1 [Example 81]", "=", 7),
    ("COc1ccc(C(=O)Nc2cccc(N(C)C)c2)cc1S(=O)(=O)Nc1cccc(NC(=O)Nc2cccc(N(C)C)c2)c1 [Example 106]", "=", 8),
    ("COc1ccc(-c2cccc(C(=O)N(C)C)c2)cc1S(=O)(=O)Nc1cccc(N2CCCN(c3cccc(N(C)C)c3)C2=O)c1 [Example 134]", "=", 84),
    ("CN(C)C(=O)c1cccc(-c2ccc(Cl)c(S(=O)(=O)Nc3cccc(NC(=O)Nc4cccc(N(C)C)c4)c3)c2)c1 [Example 118]", "=", 9),
    ("COc1ccc(-c2cccc(C(=O)N(C)C)c2)cc1S(=O)(=O)Nc1ccccc1NC(=O)Nc1cccc(N(C)C)c1 [Example 121]", "=", 10),
    ("COc1ccc(-c2cccc(C(=O)N(C)C)c2)cc1S(=O)(=O)Nc1cccc(N2CCCN(c3ccccc3N(C)C)C2=O)c1 [Example 133]", "=", 84),
    ("COc1ccc(C(=O)NCc2cccnc2)cc1S(=O)(=O)Nc1cccc(NC(=O)Nc2cccc(N(C)C)c2)c1 [Example 103]", "<", 5),
    ("CCN(Cc1cccnc1)C(=O)c1ccc(OC)c(S(=O)(=O)Nc2cccc(NC(=O)Nc3ccccc3N(C)C)c2)c1 [Example 113]", "<", 5),
    ("COc1ccc(-c2cccc(C(=O)N(C)C)c2)cc1S(=O)(=O)Nc1cccc(Nc2c(Nc3ccc(C)cc3)c(=O)c2=O)c1 [Example 84]", "=", 10),
    ("COc1ccc(C(=O)NCCNC(=O)OC(C)(C)C)cc1S(=O)(=O)Nc1cccc(NC(=O)Nc2cccc(N(C)C)c2)c1 [Example 105]", "=", 8),
    ("COc1ccc(C(=O)NCC(C)(C)CN(C)C)cc1S(=O)(=O)Nc1cccc(NC(=O)Nc2cccc(N(C)C)c2)c1 [Example 107]", "<", 5),
    ("COc1ccc(C(=O)NCCCNC(=O)OC(C)(C)C)cc1S(=O)(=O)Nc1cccc(NC(=O)Nc2cccc(N(C)C)c2)c1 [Example 104]", "=", 7),
    ("Cc1ccc(-c2cccc(C(=O)N(C)C)c2)cc1S(=O)(=O)Nc1cccc(NC(=O)Nc2cccc(N(C)C)c2)c1 [Example 117]", "<", 5),
    ("CCN(Cc1ccccc1)C(=O)c1ccc(OC)c(S(=O)(=O)Nc2cccc(NC(=O)Nc3ccc(N(C)C)cc3)c2)c1 [Example 110]", "<", 5),
    ("CCCOc1ccc(-c2cccc(C(=O)N(C)C)c2)cc1S(=O)(=O)Nc1cccc(NC(=O)Nc2cccc(N(C)C)c2)c1 [Example 120]", "<", 5),
]

* * *

- TEST_TARGET: human OX2R (Homo sapiens)
- Construct: expressed in transfected cells; host or cells: CHO (Chinese hamster ovary) cells, line CHOOX2R, co-expressing NFAT-luciferase
- Sequence (O43614 whole entry): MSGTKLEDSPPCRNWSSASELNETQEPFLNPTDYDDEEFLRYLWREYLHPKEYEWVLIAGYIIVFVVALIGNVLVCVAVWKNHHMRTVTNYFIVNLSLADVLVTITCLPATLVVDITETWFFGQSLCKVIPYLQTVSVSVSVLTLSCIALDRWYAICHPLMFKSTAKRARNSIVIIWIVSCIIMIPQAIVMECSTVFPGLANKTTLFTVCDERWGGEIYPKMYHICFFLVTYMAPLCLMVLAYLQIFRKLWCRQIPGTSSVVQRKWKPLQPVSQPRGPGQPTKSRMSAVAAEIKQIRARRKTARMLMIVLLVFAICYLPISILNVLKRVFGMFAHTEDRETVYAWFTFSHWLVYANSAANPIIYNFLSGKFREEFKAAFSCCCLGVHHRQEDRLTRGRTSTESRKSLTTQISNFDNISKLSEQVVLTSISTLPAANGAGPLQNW
- ASSAY_PROTOCOL: Agonist activity against OX2R: intracellular calcium (Fura-2AM, FDSS7000) in CHOOX2R cells
- Type: cell-based
- CONDITION_INFO: 1.0 μM test compound; relative to orexin-A as full agonist (100%)
- Protocol: Evaluation of Agonist Activity Against OX1R and OX2R […] (As used herein, Response in Table 21 to Table 27 is a value obtained by dividing the agonist activity value, when the test compound is evaluated with orexin-A as a full-agonist (maximum value of agonist activity: 100%), at 10 μM, 1.0 μM, 0.1 μM by the agonist activity value of orexin-A.)
Item-by-item account of Response (%) OX2R

# COMPOUND, MODIFIER_SIGN, Response (%) OX2R
rows = [
    ("COc1ccc(-c2cccc(C(=O)N(C)C)c2)cc1S(=O)(=O)Nc1cccc(NC(=S)Nc2ccccc2)c1", "=", 94),
    ("COc1ccc(-c2cccc(C(=O)N(C)C)c2)cc1S(=O)(=O)Nc1cccc(NC(=O)Nc2cccc(C(=O)O)c2)c1", "<", 5),
    ("COc1ccc(-c2cccc(C(=O)N(C)C)c2)cc1S(=O)(=O)Nc1cccc(NC(=O)Nc2cccs2)c1", "=", 83),
    ("COc1cccc(Nc2cccc(NS(=O)(=O)c3cc(-c4cccc(C(=O)N(C)C)c4)ccc3OC)c2)c1", "=", 79),
    ("COc1ccc(-c2cccc(C(=O)N(C)C)c2)cc1S(=O)(=O)Nc1cccc(NC(=O)Nc2ccc(NC(=NC(=O)OC(C)(C)C)NC(=O)OC(C)(C)C)cc2)c1", "<", 5),
    ("COc1ccc(-c2cccc(C(=O)N(C)C)c2)cc1S(=O)(=O)Nc1cccc(NC(=O)Nc2ccc(NC(=N)NC(=O)OC(C)(C)C)cc2)c1", "=", 18),
    ("COc1ccc(-c2cccc(C(=O)N(C)C)c2)cc1S(=O)(=O)Nc1cccc(Nc2ccc(C(=O)N(C)C)cc2)c1", "=", 52),
    ("COc1ccc(-c2cccc(C(=O)N(C)C)c2)cc1S(=O)(=O)Nc1cccc(NC(=O)c2ccccc2C)c1", "=", 19),
    ("COc1ccc(-c2cccc(C(=O)N(C)C)c2)cc1S(=O)(=O)Nc1cccc(NC(=O)/C=C/c2ccoc2)c1", "=", 18),
    ("COc1ccc(-c2cccc(C(=O)N(C)C)c2)cc1S(=O)(=O)Nc1cccc(NC(=O)Nc2cccnc2)c1", "=", 90),
    ("COc1ccc(-c2cccc(C(=O)N(C)C)c2)cc1S(=O)(=O)Nc1cccc(NC(=O)c2cccc(C)c2)c1", "=", 81),
    ("COc1ccc(-c2cccc(C(=O)N(C)C)c2)cc1S(=O)(=O)Nc1cccc(NC(=O)Nc2cccc([N+](=O)[O-])c2)c1", "=", 92),
]

* * *

- TEST_TARGET: human OX1R (Homo sapiens)
- Construct: expressed in transfected cells; host or cells: CHO (Chinese hamster ovary) cells, line CHOOX1R, co-expressing NFAT-luciferase
- Sequence (O43613 1-425): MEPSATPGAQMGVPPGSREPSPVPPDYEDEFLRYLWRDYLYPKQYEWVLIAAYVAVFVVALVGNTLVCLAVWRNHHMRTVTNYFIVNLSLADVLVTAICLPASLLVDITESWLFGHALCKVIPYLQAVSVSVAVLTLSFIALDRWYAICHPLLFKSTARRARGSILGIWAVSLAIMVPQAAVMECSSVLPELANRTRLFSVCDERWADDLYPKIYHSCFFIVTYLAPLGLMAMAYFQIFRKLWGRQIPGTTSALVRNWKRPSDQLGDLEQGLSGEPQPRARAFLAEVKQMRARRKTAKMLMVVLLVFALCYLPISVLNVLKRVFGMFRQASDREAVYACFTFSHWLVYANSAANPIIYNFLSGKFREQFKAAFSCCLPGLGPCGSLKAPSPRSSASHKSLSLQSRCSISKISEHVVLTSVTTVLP
- ASSAY_PROTOCOL: Agonist activity against OX1R: intracellular calcium (Fura-2AM, FDSS7000) in CHOOX1R cells
- Format: cell-based
- CONDITION_INFO: 10 μM test compound; relative to orexin-A as full agonist (100%)
ASSAY_READOUT: Response (%) OX1R

# COMPOUND, TEST_TARGET, UNIT, MODIFIER_SIGN, VAL
data = [
    ("COc1ccc(-c2cccc(C(=O)N(C)C)c2)cc1S(=O)(=O)Nc1cccc(NC(=O)Nc2ccc(NC(=O)OC(C)(C)C)cc2)c1 [Example 72]", "human OX1R (Homo sapiens)", "%", "<", 5),
    ("COc1ccc(NC(=O)Nc2cccc(NS(=O)(=O)c3cc(-c4cccc(C(=O)N(C)C)c4)ccc3OC)c2)cc1 [Example 53]", "human OX1R (Homo sapiens)", "%", "=", 26),
    ("COc1ccc(Nc2cccc(NS(=O)(=O)c3cc(-c4cccc(C(=O)N(C)C)c4)ccc3OC)c2)cc1 [Example 29]", "human OX1R (Homo sapiens)", "%", "<", 5),
    ("COc1ccc(-c2cccc(C(=O)N(C)C)c2)cc1S(=O)(=O)Nc1cccc(NC(=O)c2ccc3ccccc3c2)c1 [Example 9]", "human OX1R (Homo sapiens)", "%", "=", 5),
    ("COc1ccc(-c2cccc(C(=O)N(C)C)c2)cc1S(=O)(=O)Nc1cccc(NC(=O)c2cccc(N(C)C)c2)c1 [Example 7]", "human OX1R (Homo sapiens)", "%", "=", 27),
    ("COc1ccc(-c2cccc(C(=O)N(C)C)c2)cc1S(=O)(=O)Nc1cccc(NC(=O)Nc2ccc(NC(=N)NC(=O)OC(C)(C)C)cc2)c1 [Example 59]", "human OX1R (Homo sapiens)", "%", "<", 5),
]

The reported numbers originate from patent US10351522B2.
